# measured target: CD73 on U138 neuroglioma cells (Homo sapiens, UniProt P21589)
# Construct: U138 neuroglioma cells, which express CD73 on their surface; endogenous in cells; host or cells: U138 neuroglioma cells (ATCC)
# Sequence (P21589 27-549): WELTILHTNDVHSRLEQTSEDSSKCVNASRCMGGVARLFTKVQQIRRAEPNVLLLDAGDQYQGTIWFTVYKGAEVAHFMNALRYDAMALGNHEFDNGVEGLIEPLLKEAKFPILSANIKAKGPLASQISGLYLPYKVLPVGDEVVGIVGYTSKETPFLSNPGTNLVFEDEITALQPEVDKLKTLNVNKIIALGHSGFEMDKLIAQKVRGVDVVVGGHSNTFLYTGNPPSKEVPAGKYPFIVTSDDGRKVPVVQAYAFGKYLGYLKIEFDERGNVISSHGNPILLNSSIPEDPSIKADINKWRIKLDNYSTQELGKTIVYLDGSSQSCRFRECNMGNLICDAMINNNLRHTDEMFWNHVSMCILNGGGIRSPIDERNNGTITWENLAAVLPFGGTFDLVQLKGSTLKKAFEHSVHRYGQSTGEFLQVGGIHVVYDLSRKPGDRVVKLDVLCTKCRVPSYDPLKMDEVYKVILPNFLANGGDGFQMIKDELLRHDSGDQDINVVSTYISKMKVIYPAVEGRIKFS
# experiment summary: Inhibition of Ecto-5′-Nucleotidase Activity in U138 Neuroglioma Cells (Assay 2)
# Type: cell-based
# assay conditions: IC50 value for APCP (standard), standard in each experiment, typical range
pIC50: −log10 of the molar value.
measurement label: pIC50

Lab note: measured pIC50 of Nc1ncnc2c1ncn2[C@@H]1O[C@H](COP(=O)(O)CP(=O)(O)O)[C@@H](O)[C@H]1O [APCP, adenosine 5′-(α,β-methylene)diphosphate, reference compound] was 7.60 to 7.92
